# protocol description: Clearance in ICR mouse at 3 mg/kg, iv measured upto 24 hrs by LC-MS/MS analysis
# Type: ADME, organism-based
# assay context: in vivo
outcome measure: clearance (mL/min/kg)
Response body: numeric value in mL/min/kg, unit text excluded.

## Input Given the entry O=C(O)c1cc(-c2cccc(Cl)c2-c2ccc3c(c2)CCO3)ccc1C(F)(F)F , report its measured clearance.
## Output 12.5

* * *

For reference, pKi measured on Fatty acid-binding protein, heart (Homo sapiens, UniProt P05413):
# pKi: negative log10 of molar concentration; output just the value

O=C(O)c1cc(-c2cccc(Cl)c2-c2ccc3c(c2)CCO3)ccc1C(F)(F)F ... 4.48
O=C(O)c1ccccc1Nc1cccc(Cl)c1-c1ccc2c(c1)CCO2 ... 6.04

Now turn to the next compound.
## Input # input compound: O=C(O)C1CCc2ccc(-c3cccc(Cl)c3-c3ccc4c(c3)CCO4)cc21 (stereo not drawn) ; wanted: its pKi
## Output 4.74
